Data provenance is patent EP1379283B1.

# system tested: oxytocin receptor (Rattus norvegicus, UniProt P70536)
# Construct: cell membranes prepared from rat uterus; from tissue; host or cells: rat uterus membranes
# Sequence (P70536 1-388): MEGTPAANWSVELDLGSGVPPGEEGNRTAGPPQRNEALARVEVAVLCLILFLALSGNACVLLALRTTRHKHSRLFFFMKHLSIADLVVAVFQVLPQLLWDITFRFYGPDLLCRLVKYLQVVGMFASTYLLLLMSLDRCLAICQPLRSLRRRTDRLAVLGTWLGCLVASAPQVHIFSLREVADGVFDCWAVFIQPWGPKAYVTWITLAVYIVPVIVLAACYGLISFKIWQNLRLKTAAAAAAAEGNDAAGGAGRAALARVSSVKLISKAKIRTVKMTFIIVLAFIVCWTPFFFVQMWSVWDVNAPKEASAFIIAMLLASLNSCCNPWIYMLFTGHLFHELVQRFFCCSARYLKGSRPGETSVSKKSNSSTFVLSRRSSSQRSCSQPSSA
# protocol description: oxytocin receptor binding, 3H-oxytocin, cell membranes from rat uterus
# run conditions: Table 30, oxytocin ligand library; 1 µM; rat uterus membranes; 3H-oxytocin
Ends that are not written are not given here.
property measured: % Inhibition at 1 µM Oxytocin Receptor (%)

{"substance": "Ala-Tyr-Ile-Gln-Asn-Ala-Ala-Leu-Gly-Cys-NH2 (AYIQNAALGC-NH2; not fully specified (bridges); printed as Ala-Tyr-Ile-Gln-Asn-Ala-Ala-Leu-Gly-Cys-NH2; also: oxorhenium(V) N3S1 metal chelate (X-X-Cys)) [SEQ ID NO:150]", "system tested": "oxytocin receptor (Rattus norvegicus, UniProt P70536)", "result number": 0}
